assay: PK protocol: pharmacokinetic parameters in male Sprague Dawley rats (intravenous or oral); format: in vivo; settings: plasma, oral administration, 3 mg/kg, rat
Counter-ions that a name gives are not always drawn.
Endpoint Label: Cmax (ng/mL)
Write the number in ng/mL without appending the unit.

CCN(CC)CCCS(=O)(=O)NC(=O)Nc1c2c(cc3c1CCC3)CCC2 [Example 3, potassium salt] yielded Cmax of 819

* * *

molecular target: NLRP3 (Homo sapiens, UniProt Q96P20); assay: THP-1 cells pyroptosis assay (LPS + nigericin, resazurin readout); type: cell-based; set-up: Seed THP-1 cells (25,000 cells/well) containing 1.0 μg/ml LPS in 40 μl of RPMI medium; host or cells: THP-1 cells, LPS-primed and nigericin-stimulated; details: NLRP3 inhibitory activity in THP-1 cells, 1.0 μg/ml LPS, 5 μM nigericin
Sequence (Q96P20 whole entry): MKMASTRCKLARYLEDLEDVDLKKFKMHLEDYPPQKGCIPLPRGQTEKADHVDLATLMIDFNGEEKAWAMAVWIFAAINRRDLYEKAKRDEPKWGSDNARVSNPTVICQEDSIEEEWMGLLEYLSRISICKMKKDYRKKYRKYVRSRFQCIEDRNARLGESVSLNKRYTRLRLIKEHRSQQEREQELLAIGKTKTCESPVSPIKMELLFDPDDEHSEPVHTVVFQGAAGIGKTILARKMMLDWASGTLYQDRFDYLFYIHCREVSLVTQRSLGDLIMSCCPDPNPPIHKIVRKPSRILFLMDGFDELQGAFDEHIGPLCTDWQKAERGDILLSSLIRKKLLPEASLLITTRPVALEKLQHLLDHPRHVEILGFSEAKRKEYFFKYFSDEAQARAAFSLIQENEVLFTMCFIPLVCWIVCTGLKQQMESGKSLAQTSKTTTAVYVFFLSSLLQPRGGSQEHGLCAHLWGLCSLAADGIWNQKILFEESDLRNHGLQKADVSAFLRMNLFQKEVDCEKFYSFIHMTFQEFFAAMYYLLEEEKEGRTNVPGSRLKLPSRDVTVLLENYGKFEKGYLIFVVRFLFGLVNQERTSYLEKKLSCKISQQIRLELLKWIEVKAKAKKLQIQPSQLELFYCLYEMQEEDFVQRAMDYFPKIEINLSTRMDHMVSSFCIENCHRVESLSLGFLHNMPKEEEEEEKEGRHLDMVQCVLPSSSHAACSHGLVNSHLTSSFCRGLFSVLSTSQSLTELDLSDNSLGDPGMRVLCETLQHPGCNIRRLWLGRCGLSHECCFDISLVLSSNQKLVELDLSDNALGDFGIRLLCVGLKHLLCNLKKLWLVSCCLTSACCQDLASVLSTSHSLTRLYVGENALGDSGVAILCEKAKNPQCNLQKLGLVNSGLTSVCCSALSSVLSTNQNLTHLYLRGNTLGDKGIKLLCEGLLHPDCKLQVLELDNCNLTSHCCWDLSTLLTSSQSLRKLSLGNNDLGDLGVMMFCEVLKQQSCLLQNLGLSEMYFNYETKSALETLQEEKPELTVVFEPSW
pIC50: −log10 of the molar value. Structures can show the parent of a compound that is named as a salt.
Endpoint Label: pIC50

CC(C)c1cc(F)cc(-c2ccnc(C#N)c2)c1NC(=O)NS(=O)(=O)Cc1cccnc1 yielded pIC50 of 5.00 to 5.70

CCN1CC2(CC(S(=O)(=O)NC(=O)Nc3c4c(cc5c3CCC5)CCC4)C2)C1 [Example 38, potassium salt] yielded pIC50 of 5.00 to 5.70

CN(C)CCCCS(=O)(=O)NC(=O)Nc1c2c(cc3c1CCC3)CCC2 yielded pIC50 of 5.70 to 5.80

NCCCS(=O)(=O)NC(=O)Nc1c2c(cc3c1CCC3)CCC2 [Example 65, potassium salt] yielded pIC50 of 5.00 to 5.70

COCCCS(=O)(=O)NC(=O)Nc1c(-c2ccnc(C#N)c2)cc(F)cc1C(C)C yielded pIC50 of 5.00 to 5.70

CC(C)N1CC2(COC(CS(=O)(=O)NC(=O)Nc3c4c(cc5c3CCC5)CCC4)C2)C1 (stereo not drawn) [Example 77, Potassium Salt] yielded pIC50 of 5.00 to 5.70

O=C(Nc1c2c(cc3c1CCC3)CCC2)NS(=O)(=O)CCCN1CCCCC1 [Example 16, Potassium Salt] yielded pIC50 of 5.70 to 5.80

O=C(Nc1c2c(cc3c1CCC3)CCC2)NS(=O)(=O)CCCCN1CCOCC1 [Example 9, Potassium Salt] yielded pIC50 of 5.00 to 5.70

COCCC(=O)N(C)CCCS(=O)(=O)NC(=O)Nc1c2c(cc3c1CCC3)CCC2 yielded pIC50 of 5.70 to 5.80

C[N+](C)(C)CCCS(=O)(=O)NC(=O)Nc1c2c(cc3c1CCC3)CCC2 [Example 66, Potassium Salt] yielded pIC50 of 5.00 to 5.70

CCN(CC)CCS(=O)(=O)NC(=O)Nc1c2c(cc3c1CCC3)CCC2 [Example 18, potassium salt] yielded pIC50 of 5.00 to 5.70

O=C(Nc1c2c(cc3c1CCC3)CCC2)NS(=O)(=O)CCCN1CCOCC1 [Example 15, Potassium Salt] yielded pIC50 of 5.70 to 5.80

CC(C)c1cc(F)cc(C(C)C)c1NC(=O)NS(=O)(=O)CCCN(C)C yielded pIC50 of 5.00 to 5.70

O=C(Nc1c(-c2ccncc2)cc(F)c2c1CCC2)NS(=O)(=O)Cc1cccnc1 yielded pIC50 of 5.00 to 5.70

CC(CN(C)C)S(=O)(=O)NC(=O)Nc1c2c(cc3c1CCC3)CCC2 (stereo not drawn) [Example 26, potassium salt] yielded pIC50 of 5.00 to 5.70

CCN(CCCS(=O)(=O)NC(=O)Nc1c(-c2ccnc(C#N)c2)cc(F)cc1C(C)C)Cc1ccccc1 yielded pIC50 of 5.00 to 5.70

CC(C)N1CC2(CC(S(=O)(=O)NC(=O)Nc3c4c(cc5c3CCC5)CCC4)C2)C1 [Example 39, potassium salt] yielded pIC50 of 5.00 to 5.70

CC1(C)C2CC[C@@]1(CS(=O)(=O)NC(=O)Nc1c3c(cc4c1CCC4)CCC3)C(N)C2 (stereo partly drawn) yielded pIC50 of 5.00 to 5.70

CN1CC2(CC(S(=O)(=O)NC(=O)Nc3c4c(cc5c3CCC5)CCC4)C2)C1 [Example 40, potassium salt] yielded pIC50 of 5.00 to 5.70

CC(=O)NCCS(=O)(=O)NC(=O)Nc1c2c(cc3c1CCC3)CCC2 [Example 6, Potassium Salt] yielded pIC50 of 5.00 to 5.70

COc1cc(-c2cc(F)cc(C(C)C)c2NC(=O)NS(=O)(=O)Cc2cccnc2)ccn1 yielded pIC50 of 5.00 to 5.70

O=C(Nc1c2c(cc3c1CCC3)CCC2)NS(=O)(=O)CC1CCN(C2COC2)C1 (stereo not drawn) [Example 64, Potassium Salt] yielded pIC50 of 5.00 to 5.70

CC(C)c1cc(F)cc(-c2ccnc(C#N)c2)c1NC(=O)NS(=O)(=O)CC1CCN(C)C1 (stereo not drawn) yielded pIC50 of 5.00 to 5.70

CC(C)c1cc(Cl)cc(C(C)C)c1NC(=O)NS(=O)(=O)CCCN(C)C yielded pIC50 of 5.00 to 5.70
